Test system: Hs-578T
Assay: NCI tumour cell line growth inhibition, 48 h
The source made the active and inactive calls. Rule as the data show it: active = GI50 up to about 1.1 µM and inactive = higher.
I would appreciate it if you answered using one of these outcomes: t (active), f (inactive)

Check out these entries, answers already filled in.
{"molecule": "CN(C(=O)Cc1cccc(N=C=S)c1)[C@H]1CCCC[C@@H]1N1CCCC1", "category_label": "f"}
{"molecule": "CC(C)(CO)CNc1cc(Cl)nc(N)n1", "category_label": "f"}
{"molecule": "CC(C)OC(=O)c1ccc(CCC2=CC(=O)C(Br)=CC2=O)cc1", "category_label": "f"}
{"molecule": "Brc1ccc(-c2[nH]c3ccccc3c2/N=N\\c2ccccc2)cc1", "category_label": "f"}
{"molecule": "CCCCCCC(=O)OC[n+]1cccc(-c2c(COC(=O)NC(C)C)c(COC(=O)NC(C)C)c3n2CCC3)c1", "category_label": "f"}

Prompt: Hi team, can someone confirm the assay call for COc1cc2c(/C=C3/C(=O)Nc4ccccc43)c(Cl)n(Cc3ccc(Cl)cc3)c2cc1C ?
Completion: t

Prompt: Hi team, can someone confirm the assay call for Cc1nc2c(o1)C(=O)c1ccccc1/C2=N/C1CCCCC1N (stereo unspecified) ?
Completion: t

Prompt: Hi team, can someone confirm the assay call for O=c1[nH]nc(-c2ccccc2)n1/N=C/c1ccccc1O ?
Completion: f

Prompt: Hi team, can someone confirm the assay call for CCOc1cc(NC(C)=O)ccc1C(=O)NN1C(=O)CSC1c1ccc(O)c(OC)c1 (stereo unspecified) ?
Completion: f

Prompt: Hi team, can someone confirm the assay call for COC(=O)c1c2c(cc3c1CC1(Cc4ccccc4C1=O)C3)CCC2 (stereo unspecified) ?
Completion: f

Prompt: Hi team, can someone confirm the assay call for Cc1cc2c(c(=O)n1C)SCC2 ?
Completion: f

Prompt: Hi team, can someone confirm the assay call for Cc1nc2ccc(NC3OC(CO)C(O)C(O)C3O)cc2c(=O)n1-c1ccccc1 (stereo unspecified) ?
Completion: f

Prompt: Hi team, can someone confirm the assay call for CN(C)/N=C1\C=C2CC[C@H](O[Si](C)(C)C(C)(C)C)[C@@]2(C)CC1 ?
Completion: f

---

System: T47D
Assay: NCI tumour cell line growth inhibition, 48 h
Activity calls are given as the source filed them. Cut-off read from the data, not from the text of the source: active = GI50 up to about 1.1 µM and inactive = higher.
value_kind: GI50

{"compound": "Cc1ccc(S(=O)(=O)OCCN(CCOS(=O)(=O)c2ccc(C)cc2)c2ccc(C=O)cc2)cc1", "GI50": "40.7 µM (inactive)"}
{"compound": "Oc1cc(O)cc(-c2nc3cc(F)ccc3s2)c1", "GI50": "17.5 µM (inactive)"}
{"compound": "O=C(CCNC(=O)OCc1ccccc1)OCCCNC(=O)OCc1ccccc1", "GI50": "> 100 µM (inactive)"}
{"compound": "CN(C)C1C(O)=C(C(=O)NCN2CCCC2)C(=O)C2(O)C(O)=C3C(=O)c4c(O)cccc4C(C)(O)C3CC12 (centres undefined)", "GI50": "> 100 µM (inactive)"}
{"compound": "COc1ccc(-c2oc3c(OC)c(OC)cc(O)c3c(=O)c2OC)cc1", "GI50": "> 100 µM (inactive)"}

Prompt: Find GI50 for CSC(=O)/C=C1\SS/C(=C\C(=O)SC)S1 on T47D and write it down.
Completion: 5.83 µM (inactive)

Prompt: Find GI50 for O=[N+]([O-])/C(C(Cl)=C(Cl)Cl)=C(\Nc1ccccc1)n1nnc2ccccc21 on T47D and write it down.
Completion: > 100 µM (inactive)

Prompt: Find GI50 for CC1CN(c2cc3c(cc2F)c(=O)c(C(=O)O)cn3-c2ccc(N3CCN(C)CC3)cn2)CC(C)N1 (centres undefined) on T47D and write it down.
Completion: > 100 µM (inactive)

Prompt: Find GI50 for NC1CC(=O)c2c(I)sc(I)c21 (centres undefined) on T47D and write it down.
Completion: 46.2 µM (inactive)
